- Study System: Apolipoprotein L1 (Homo sapiens)
- Measurement Description: Inhibition of APOL1 G1 variant in human HEK293-T-REx cells measured by Thallium assay
Catalogue of IC50 readings, one per entry.

Illustrative cases are given below, each with its answer.
>>> test_value("CC1(NC(=O)[C@H]2C[C@H](c3c(-c4ccc(F)cc4)[nH]c4c(F)cc(F)cc43)C2)CCNC1=O (stereo partly drawn)")
"0.25 nM"
>>> test_value("O=C1N[C@H](CO)C[C@@H]1NC(=O)[C@H]1C[C@H](c2c(-c3ccc(F)cc3)[nH]c3c(F)cc(F)cc32)C1")
"> 1000 nM"
>>> test_value("NC(=O)[C@H]1CCCN1C(=O)[C@H]1C[C@H](c2c(-c3ccc(F)cc3)[nH]c3c(F)cc(F)cc32)C1")
"0.25 nM"
>>> test_value("CC(O)C1CCN(C(=O)[C@H]2C[C@H](c3c(-c4ccc(F)cc4)[nH]c4c(F)cc(F)cc43)C2)CC1 (stereo partly drawn)")
"> 1000 nM"
>>> test_value("NC(=O)C(CO)NC(=O)[C@H]1C[C@H](c2c(-c3ccc(F)cc3)[nH]c3c(F)cc(F)cc32)C1 (stereo partly drawn)")
"< 250 nM"
>>> test_value("O=C([C@H]1C[C@H](c2c(-c3ccc(F)cc3)[nH]c3c(F)cc(F)cc32)C1)N1CC[C@H](CO)[C@H](O)C1")
"> 1000 nM"

Look up IC50 for this compound: NC(=O)CNC[C@H]1C[C@@H](c2c(-c3ccc(F)cc3)[nH]c3c(F)cc(F)cc32)C1 < 250 nM

// next record Cc1cc(CNC(=O)[C@H]2C[C@H](c3c(-c4ccc(F)cc4)[nH]c4c(F)cc(F)cc43)C2)nn1C > 1000 nM

Then CC(C)(O)C(O)CNC(=O)[C@H]1C[C@H](c2c(-c3ccc(F)cc3)[nH]c3c(F)cc(F)cc32)C1 (stereo partly drawn) ? > 1000 nM

What about this compound? CC(C)C[C@H](CO)NC(=O)C1CC(Cc2c(-c3ccc(F)cc3)[nH]c3c(F)cc(F)cc23)C1 (stereo partly drawn) > 1000 nM

Also, NC(=O)CNC(=O)C1CC(c2c(-c3ccc(F)cc3)[nH]c3c(F)cc(C(F)(F)F)cc23)C1 (stereo not drawn) please. < 250 nM

Same thing, different compound: C[C@H](NCC1CC(c2c(-c3ccc(F)cc3)[nH]c3c(F)cc(F)cc23)C1)C(N)=O (stereo partly drawn) > 1000 nM

Next: C[C@H](O)[C@H](CO)NC(=O)[C@H]1C[C@@H](c2c(-c3ccc(F)cc3)[nH]c3c(F)cc(F)cc32)C1 > 1000 nM

Here is the next compound: Cc1ccn(CCNC(=O)[C@H]2C[C@@H](c3c(-c4ccc(F)cc4)[nH]c4c(F)cc(F)cc43)C2)n1 0.25 nM

Continue with CC(C)(O)CCNC(=O)C1CC(Cc2c(-c3ccc(F)cc3)[nH]c3c(F)cc(F)cc23)C1 (stereo not drawn) > 1000 nM

Input O=C([C@H]1C[C@H](c2c(-c3ccc(F)cc3)[nH]c3c(F)cc(F)cc32)C1)N1CC2(CC(O)C2)C1 > 1000 nM

// same read-out, input: O=C(NCC1CC(F)(F)C1)[C@H]1C[C@H](c2c(-c3ccc(F)cc3)[nH]c3c(F)cc(F)cc32)C1 > 1000 nM

// query: COC1CC1NC(=O)O[C@H]1C[C@H](c2c(-c3ccc(F)cc3)[nH]c3c(F)cc(F)cc32)C1 (stereo partly drawn) > 1000 nM

Would you kindly repeat that for CC1(NC(=O)C2CC(Cc3c(-c4ccc(F)cc4)[nH]c4c(F)cc(F)cc34)C2)CCOC1 (stereo not drawn) ? > 1000 nM

Try this compound next: O=C([C@H]1C[C@H](c2c(-c3ccc(F)cc3)[nH]c3c(F)cc(F)cc32)C1)N1CCCC[C@@H]1CCO > 1000 nM

Moving on to the next compound: O=C(N[C@H](CO)C(F)(F)F)[C@H]1C[C@H](c2c(-c3ccc(F)cc3)[nH]c3c(F)cc(F)cc32)C1 0.25 nM

Moving on to the next compound: O=C([C@H]1C[C@H](c2c(-c3ccc(F)cc3)[nH]c3c(F)cc(F)cc32)C1)N1CC(O)C(CO)C1 (stereo partly drawn) > 1000 nM

Follow-up item: COC1(CNC(=O)C2CC(Cc3c(-c4ccc(F)cc4)[nH]c4c(F)cc(F)cc34)C2)CCOC1 (stereo not drawn) > 1000 nM

Another: O=C(CC1CC(c2c(-c3ccc(F)cc3)[nH]c3c(F)cc(F)cc23)C1)NC1(CO)CC1 (stereo not drawn) 0.25 nM

Continue with Cc1ccn(CCNC(=O)[C@H]2C[C@H](c3c(-c4ccc(F)cc4)[nH]c4c(F)cc(F)cc43)C2)n1 > 1000 nM
